System: AncSR2 (ancestral steroid receptor 2) LBD, Gal4 DBD fusion
ASSAY_INFO: Gal4-LBD luciferase reporter
Format: cell-based, synthetic construct
CONDITION: U2OS
# maps each entry to its EC50
Enter your answer as a number in nM; do not include the unit.

CC(=O)[C@H]1CC[C@H]2[C@@H]3CCC4=CC(=O)CC[C@]4(C)[C@H]3CC[C@]12C ... 0.49

Attention now turns to another entry.
Input line: So what's the measured EC50 for this one? C[C@]12CCC(=O)C[C@@H]1CC[C@@H]1[C@@H]2CC[C@]2(C)[C@@H](O)CC[C@@H]12
Output line: 53
